These measurements were taken from PubChem BioAssay AID1259407.

Tested on: CCRIS mutagenicity, Ames/micronucleus/aberration tests
Assay: CCRIS mutagenicity studies
Details: Test System: AMES SALMONELLA TYPHIMURIUM; Strain/Indicator: TA1977; Metabolic Activation: NONE; Method: STANDARD PLATE
Excerpt: The CCRIS database contains chemical records with carcinogenicity, mutagenicity, tumor promotion, and tumor inhibition test results. It was developed by the National Cancer Institute (NCI). Data are derived from studies cited in primary journals, current awareness tools, NCI reports, and other sources. Test results have been reviewed by experts in carcinogenesis and mutagenesis. CCRIS provides historical information from the years 1985 - 2011. It is no longer updated. […]
The source made the active and inactive calls. The rule behind the calls is not given here.
experimental-endpoint: mutagenic call

- CCN(CCCl)c1ccc(OCCCCCNc2c3ccccc3nc3ccccc23)cc1: active; positive
- CC(=O)Nc1cc2c(cc1[N+](=O)[O-])[nH]c1ccccc12: inactive; negative
- Nc1ccc2[nH]c3ccccc3c2c1[N+](=O)[O-]: active; positive
- Nc1cc2[nH]c3ccccc3c2cc1[N+](=O)[O-]: inactive; negative

###

System: CCRIS mutagenicity, Ames/micronucleus/aberration tests
Test: CCRIS mutagenicity studies
Details: Test System: Mouse lymphoma; Strain/Indicator: L5178Y (tk+/tk-); Metabolic Activation: Rat, Liver, S-9, Aroclor 1254; Method: Suspension/plate
The source made the active and inactive calls. How the calls were made is not given here.
Classes used: 1.0 (active), 0.0 (inactive)

- Oc1ccc2c(c1)OCO2: 1.0
- C=CC(=O)OCC(CC)(COC(=O)C=C)COC(=O)C=C: 1.0
- Cc1ccccc1Cl: 0.0
- COc1cccc2c1[C@H](CO)N1[C@@H](C#N)[C@@H]3C[C@@H](C(=O)O)[C@H]([C@@H]1C2)N3C: 1.0
- OC/C=C/c1ccccc1: 0.0
- CC1(C)C(=O)[C@]2(C)CC[C@H]1C2: 1.0
- C=CCNC1=C2C[C@@H](C)C[C@H](OC)[C@H](O)[C@@H](C)/C=C(\C)[C@H](OC(N)=O)[C@@H](OC)/C=C\C=C(/C)C(=O)NC(=CC1=O)C2=O: 0.0
- O=C(O)C1=NN(c2ccc(S(=O)(=O)O)cc2)C(=O)C1N=Nc1ccc(S(=O)(=O)O)cc1 (centres undefined): 0.0
- O=C1CCCCC1: 1.0
- O=C(O)/C=C/c1ccccc1: 0.0
- N[C@@H](CCC(=O)N[C@@H](CS)C(=O)NCC(=O)O)C(=O)O: 0.0
- CC/C=C\C#N: 1.0

###

Test system: CCRIS mutagenicity, Ames/micronucleus/aberration tests
Assay: CCRIS mutagenicity studies
Conditions: Test System: AMES SALMONELLA TYPHIMURIUM; Strain/Indicator: TA100; Metabolic Activation: S-9; Method: STANDARD PLATE
Calls of active or inactive are those of the source. How the calls were made is not given here.
experimental-endpoint: mutagenic call

* O=C(CCCCl)N=c1sn(C(=O)CCCCl)c2ccc([N+](=O)[O-])cc12 | active; positive
* CCN(C(=S)[S-])c1ccccc1.CCN(C(=S)[S-])c1ccccc1.[Zn+2] | inactive; negative
* COc1cc(-c2ccc(N)c(OC)c2)ccc1N | inactive; negative
* CCCCOC(=O)c1ccccc1C(=O)OCCCC | inactive; negative
* O=[N+]([O-])c1ccc(/C=C/c2ccc(Cl)cc2)cc1 | active; positive
* Nc1snc2ccc(Cl)cc12 | active; positive

###

Test system: CCRIS mutagenicity, Ames/micronucleus/aberration tests
Assay: CCRIS mutagenicity studies
Conditions: Test System: AMES SALMONELLA TYPHIMURIUM; Strain/Indicator: TA1538; Metabolic Activation: NONE; Method: PREINCUBATION
Activity calls are given as the source filed them. How the calls were made is not given here.
experimental-endpoint: mutagenic call

* ClCC(Cl)COCC(Cl)CCl (stereo not drawn) | inactive; negative
* CC1CCc2c(N3CCC(O)CC3)c(F)cc3c(=O)c(C(=O)O)cn1c23 (stereo not drawn) | inactive; negative
* CC1=CC(=O)c2ccccc2C1=O | inactive; negative
* [Cl][V]([Cl])[Cl] | inactive; negative
* OB(O)O | inactive; negative
* Nc1ccc2nc3ccccc3cc2c1 | inactive; negative
* Nc1cccc2nc3ccccc3c(N)c12 | inactive; negative
* O=C(O)/C=C/c1ccccc1[N+](=O)[O-] | inactive; negative
* CSCCC=O | inactive; negative
* OCC(CO)(CO)CO | inactive; negative
* Cc1ccc(S(=O)(=O)NN)cc1 | inactive; negative
* N | inactive; negative
* C[N+]1([O-])CCC[C@H]1c1cccnc1 (stereo partly drawn) | inactive; negative

###

System: CCRIS mutagenicity, Ames/micronucleus/aberration tests
Experiment: CCRIS mutagenicity studies
Conditions: Test System: AMES SALMONELLA TYPHIMURIUM; Strain/Indicator: TA100; Metabolic Activation: RAT, LIVER, S-9, AROCLOR 1254 (30%); Method: PREINCUBATION
Activity calls are given as the source filed them. No rule for the calls is given here.
Classes used: active, inactive

* C=CC(C)=O | inactive
* C=CCOC(=O)C=C | inactive
* CCOc1ccc(N)cc1 | active
* CCOc1ccccc1N | inactive
* O=Cc1c(Cl)cccc1Cl | inactive
* CCCCCCC(C)(C)C(=O)OCC1CO1 (stereo not given) | active
* c1ccc(CSCc2ccccc2)cc1 | inactive
* OCC(O)CI (stereo not given) | active
* C#C[C@]1(O)CC[C@H]2[C@@H]3CCc4cc(O)ccc4[C@H]3CC[C@@]21C | inactive
* O=C(O)CC[N+](=O)[O-] | active
* S=C=Nc1cccc2ccccc12 | inactive
* O=C(O)C1=NN(c2ccc(S(=O)(=O)O)cc2)C(=O)C1N=Nc1ccc(S(=O)(=O)O)cc1.[Al] (stereo not given) | inactive
* CCCCCc1cc(O)cc(O)c1 | inactive
* Clc1nc(Cl)nc(Nc2ccccc2Cl)n1 | inactive
* Cc1ccc2ncccc2c1 | active

###

Tested on: CCRIS mutagenicity, Ames/micronucleus/aberration tests
Experiment: CCRIS mutagenicity studies
Details: Test System: AMES SALMONELLA TYPHIMURIUM; Strain/Indicator: TA100; Metabolic Activation: RAT, LIVER, S-9; Method: PREINCUBATION
Calls of active or inactive are those of the source. No rule for the calls is given here.
experimental-endpoint: mutagenic call

• C=CC(C)=O = active; positive
• Cc1cc(C(C)(C)C)c(O)c(C(C)(C)C)c1 = inactive; negative
• Cc1ccc2cccnc2c1 = active; positive
• CC(=O)OC(C)CN(CC(C)OC(C)=O)N=O (configuration not stated) = active; positive
• [O]=[Mg] = inactive; negative
• CCc1cccc(CC)c1N(COC)C(=O)CCl = active; positive
• Cc1c(Cl)cnc2ccccc12 = inactive; negative

###

Test system: CCRIS mutagenicity, Ames/micronucleus/aberration tests
Assay: CCRIS mutagenicity studies
Settings: Test System: AMES SALMONELLA TYPHIMURIUM; Strain/Indicator: TA98; Metabolic Activation: RAT, LIVER, S-9, AROCLOR; Method: STANDARD PLATE
Activity calls are given as the source filed them. The rule behind the calls is not given here.
experimental-endpoint: mutagenic call

* Clc1cccc(Cl)c1 | inactive; negative
* CC(C)(C)CBr | inactive; negative
* C=CC(=O)O | inactive; negative
* Cc1nc2ccc3ccc4ccc(O)cc4c3c2n1C | active; positive
* CN(C)c1ccc(N=Nc2ccc3ncsc3c2)cc1 | active; positive
* O=[N+]([O-])c1cc2c(cc1Cl)Oc1cc(Cl)c(Cl)cc1O2 | active; positive
* C[C@@H]1C[C@@H]([C@H](O)CC2CC(=O)NC(=O)C2)C(=O)[C@@H](C)C1 | inactive; negative

###

System: CCRIS mutagenicity, Ames/micronucleus/aberration tests
Assay: CCRIS mutagenicity studies
Settings: Test System: AMES SALMONELLA TYPHIMURIUM; Strain/Indicator: TA100; Metabolic Activation: NONE; Method: FLUCTUATION TEST
The source made the active and inactive calls. How the calls were made is not given here.
Classes used: active, inactive

- O=C(O)CBr: inactive
- CCN(CC)c1ccc(N=O)cc1: active
- BrC(Br)Br: active
- O=C(CCl)CCl: active
- C[C@H](CCC(=O)O)[C@H]1CC[C@H]2[C@@H]3CC[C@@H]4C[C@@H](O)CC[C@]4(C)[C@H]3C[C@H](O)[C@]12C: inactive

###

Tested on: CCRIS mutagenicity, Ames/micronucleus/aberration tests
Assay: CCRIS mutagenicity studies
Conditions: Test System: AMES SALMONELLA TYPHIMURIUM; Strain/Indicator: TA100; Metabolic Activation: RAT, LIVER, S-9, AROCLOR 1254; Method: STANDARD PLATE
The source made the active and inactive calls. The rule behind the calls is not given here.
Classes used: y = active, n = inactive

• CC1=C[C@@H]2c3cccc4[nH]cc(c34)C[C@H]2N(C)C1 = y
• O=C1c2cc(S(=O)(=O)O)ccc2C(=O)c2c1cccc2[N+](=O)[O-] = n
• CC(=O)Nc1ccccc1C = n
• CC1=CC(=O)c2nc(C)c3c([nH]c4ccccc43)c2C1=O = n
• CC(=O)Nc1ccc(S(=O)(=O)O)c2cc(S(=O)(=O)O)c(N=Nc3ccc(N=Nc4ccc(S(=O)(=O)O)cc4)c4ccc(S(=O)(=O)O)cc34)c(O)c12 = n
